- TARGET ENTITY: HpMutS2-E413A (Helicobacter pylori 26695, UniProt O25338 1-762, E413A)
- TEST SUMMARY: EMSA; no nucleotide; no plateau, value not accurate; EMSA: 0.16 nM DNA, buffer A (50 mM Tris pH 8.0, 50 mM NaCl, 1 mM DTT per Fig. S3 legend) with 0.1 ug/ul BSA, NaCl 110 mM, no divalent metal stated, 30 min on ice, 8% native PAGE at 4 C; nucleotides 1 mM; Hill-slope fit
- ASSAY CONTEXT: protein: recombinant; tags: C-terminal His6; chain copies: 4; label: 5'-32P
QUANTITY NAME: Kd

# Kd (binder: ssDNA 63-mer (ODN4) (ssDNA) DNA: ATCGATAGTCGGATCCTCCAGACAGCTCCATGTAGCAAGGCACTGGTAGAATTCGGCAGCGTC ) is ~73.8 nM
